Taken from the supplement of paper PMC5998384.

Each entry below lists one item and its recorded melting temperature value.
System: HeLa Kyoto
Test Method Notes: melting temperature (median over replicates), in situ; higher = more thermally stable
Experimental Context: cell cycle stage: G1/S
Endpoint: melting temperature

1) MAQRGGARRPRGDRERLGSRLRALRPGREPRQSEPPAQRGPPPSGRPPARSTASGHDRPTRGAAAGARRPRMKKKTRRRSTRSEELTRSEELTLSEEATWSEEATQSEEATQGEEMNRSQEVTRDEESTRSEEVTREEMAAAGLTVTVTHSNEKHDLHVTSQQGSSEPVVQDLAQVVEEVIGVPQSFQKLIFKGKSLKEMETPLSALGIQDGCRVMLIGKKNSPQEEVELKKLKHLEKSVEKIADQLEELNKELTGIQQGFLPKDLQAEALCKLDRRVKATIEQFMKILEEIDTLILPENFKDSRLKRKGLVKKVQAFLAECDTVEQNICQETERLQSTNFALAE [BAG1]; 54.3 °C
2) MADPRVRQIKIKTGVVKRLVKEKVMYEKEAKQQEEKIEKMRAEDGENYDIKKQAEILQESRMMIPDCQRRLEAAYLDLQRILENEKDLEEAEEYKEARLVLDSVKLEA [TBCA]; 55.4 °C
3) MELIQDTSRPPLEYVKGVPLIKYFAEALGPLQSFQARPDDLLINTYPKSGTTWVSQILDMIYQGGDLEKCNRAPIYVRVPFLEVNDPGEPSGLETLKDTPPPRLIKSHLPLALLPQTLLDQKVKVVYVARNPKDVAVSYYHFHRMEKAHPEPGTWDSFLEKFMAGEVSYGSWYQHVQEWWELSRTHPVLYLFYEDMKENPKREIQKILEFVGRSLPEETMDFMVQHTSFKEMKKNPMTNYTTVPQELMDHSISPFMRKGMAGDWKTTFTVAQNERFDADYAEKMAGCSLSFRSEL [SULT1A3]; 48.5 °C

----------
Tested on: HeLa Kyoto;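 note: HeLa Kyoto cells synchronized by double thymidine or nocodazole block, proteins quantified by TMT10plex mass spectrometry, three independent biological replicates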
Test Method Notes: melting temperature (median over replicates), in situ; higher = more thermally stable
Experimental Context: cell cycle stage: mitosis
Each entry below lists one item and its recorded melting temperature value.
Endpoint: melting temperature (°C)

1) MAATLGPLGSWQQWRRCLSARDGSRMLLLLLLLGSGQGPQQVGAGQTFEYLKREHSLSKPYQGVGTGSSSLWNLMGNAMVMTQYIRLTPDMQSKQGALWNRVPCFLRDWELQVHFKIHGQGKKNLHGDGLAIWYTKDRMQPGPVFGNMDKFVGLGVFVDTYPNEEKQQERVFPYISAMVNNGSLSYDHERDGRPTELGGCTAIVRNLHYDTFLVIRYVKRHLTIMMDIDGKHEWRDCIEVPGVRLPRGYYFGTSSITGDLSDNHDVISLKLFELTVERTPEEEKLHRDVFLPSVDNMKLPEMTAPLPPLSGLALFLIVFFSLVFSVFAIVIGIILYNKWQEQSRKRFY [LMAN2L]; 54.1
2) MNPSMKQKQEEIKENIKNSSVPRRTLKMIQPSASGSLVGRENELSAGLSKRKHRNDHLTSTTSSPGVIVPESSENKNLGGVTQESFDLMIKENPSSQYWKEVAEKRRKALYEALKENEKLHKEIEQKDNEIARLKKENKELAEVAEHVQYMAELIERLNGEPLDNFESLDNQEFDSEEETVEDSLVEDSEIGTCAEGTVSSSTDAKPCI [GMNN]; 52.7
3) MSSTQFNKGPSYGLSAEVKNRLLSKYDPQKEAELRTWIEGLTGLSIGPDFQKGLKDGTILCTLMNKLQPGSVPKINRSMQNWHQLENLSNFIKAMVSYGMNPVDLFEANDLFESGNMTQVQVSLLALAGKAKTKGLQSGVDIGVKYSEKQERNFDDATMKAGQCVIGLQMGTNKCASQSGMTAYGTRRHLYDPKNHILPPMDHSTISLQMGTNKCASQVGMTAPGTRRHIYDTKLGTDKCDNSSMSLQMGYTQGANQSGQVFGLGRQIYDPKYCPQGTVADGAPSGTGDCPDPGEVPEYPPYYQEEAGY [CNN2]; 50.3
